- target-or-system: Progesterone receptor (Homo sapiens) (UniProt P06401)
- Sequence (P06401 whole entry, looked up): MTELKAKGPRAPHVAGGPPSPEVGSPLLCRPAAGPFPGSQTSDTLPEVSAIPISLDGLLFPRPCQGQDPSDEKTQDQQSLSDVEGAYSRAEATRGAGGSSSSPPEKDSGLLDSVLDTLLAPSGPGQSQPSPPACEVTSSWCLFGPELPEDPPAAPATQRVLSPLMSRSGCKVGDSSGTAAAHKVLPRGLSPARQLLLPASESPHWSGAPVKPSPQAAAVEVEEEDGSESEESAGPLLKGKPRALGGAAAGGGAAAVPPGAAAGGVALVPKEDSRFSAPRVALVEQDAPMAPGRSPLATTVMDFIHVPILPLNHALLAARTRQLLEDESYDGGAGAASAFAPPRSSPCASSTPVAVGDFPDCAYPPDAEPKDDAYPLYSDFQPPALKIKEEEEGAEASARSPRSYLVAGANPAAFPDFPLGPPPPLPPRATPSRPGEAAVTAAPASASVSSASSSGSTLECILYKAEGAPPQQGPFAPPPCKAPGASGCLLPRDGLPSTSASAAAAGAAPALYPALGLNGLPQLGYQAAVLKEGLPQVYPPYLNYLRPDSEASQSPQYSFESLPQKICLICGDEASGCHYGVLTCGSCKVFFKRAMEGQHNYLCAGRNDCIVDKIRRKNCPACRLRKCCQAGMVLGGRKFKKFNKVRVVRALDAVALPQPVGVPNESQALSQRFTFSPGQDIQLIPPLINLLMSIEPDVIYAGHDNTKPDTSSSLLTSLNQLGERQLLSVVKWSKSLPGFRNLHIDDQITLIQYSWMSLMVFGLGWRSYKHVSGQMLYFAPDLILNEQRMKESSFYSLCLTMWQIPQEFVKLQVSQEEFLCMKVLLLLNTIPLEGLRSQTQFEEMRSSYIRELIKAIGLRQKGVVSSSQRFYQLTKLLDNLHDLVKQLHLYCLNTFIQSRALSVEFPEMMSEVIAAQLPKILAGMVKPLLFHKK
- assay-comment: qHTS assay to identify small molecule antagonists of the progesterone receptor (PR) signaling pathway (AID 1346795)
- run-conditions: PR-UAS-bla HEK293T, beta-lactamase FRET ratio, 16 h; series mostly up to 92.4 µM
Results filed as inconclusive are left out. Calls of active or inactive are those of the source. Calls follow the shape of the dose curve; as a rule, active = well fitted inhibition curve with a large enough effect in the signal ratio in the repeat runs (not every such curve was filed as active); inconclusive = weak or mixed curves; inactive = flat fitted curve, though single readings scatter; the % refers to the signal ratio.
Classes used: 1 (yes) for active, 0 (no) for inactive

> print(dat)
                                    compound    label
 1                           C=C(C)C(=O)OCCO   0 (no)
 2                      C=CC(=O)OCCOc1ccccc1   0 (no)
 3                   CCOC(=O)C(=O)CCc1ccccc1   0 (no)
 4    OCCN1CCN(CCCN2c3ccccc3C=Cc3ccccc32)CC1   0 (no)
 5                                CCCCCCCC#N   0 (no)
 6    COc1cccc(N(C)C(=S)Oc2ccc3c(c2)CCCC3)n1  1 (yes)
 7            CN1CCN(C(c2ccccc2)c2ccccc2)CC1   0 (no)
 8                      Cc1cccc(Nc2ccccc2)c1   0 (no)
 9  CCN(CC)CCOC(=O)C(Cc1cccc2ccccc12)CC1CCCO1 (centres undefined)   0 (no)
10            Nc1ccc(N)c2c1C(=O)c1ccccc1C2=O   0 (no)
11  CCOCC(O)COc1ccc(NC(=O)CC[S+](C)C)cc1 (centres undefined)   0 (no)
12                 COc1ccc(C)cc1[N+](=O)[O-]   0 (no)
13                  c1ccc(CNCCNCc2ccccc2)cc1   0 (no)
14                CN(C)CCN(Cc1ccsc1)c1ccccn1   0 (no)

---

- assay-comment: qHTS assay to identify small molecule antagonists of the thyroid receptor (TR) signaling pathway (AID 743065); also: nearly all actives have a fitted effect of over 55% in size
- run-conditions: GH3.TRE-Luc, T3-stimulated luciferase inhibition, 23.5 h; series mostly up to 70.3 µM
- Description: U.S. Tox21 Program National Center for Advancing Translational Sciences [NCATS] NIH Chemical Genomics Center [NCGC] U.S. Environmental Protection Agency [EPA] National Institutes of Environmental Health Sciences [NIEHS] National Toxicology Program [NTP] U.S. Food and Drug Administration [FDA] Tox21 Assay Overview: Thyroid receptor (TR), a nuclear hormone receptor, plays an important role in development, proliferation, differentiation, metabolism, brain function, and cardiovascular system. […]
Inconclusive results are not listed. Calls of active or inactive are those of the source. The call rests on the fitted dose curve; in most records, active means well fitted inhibition curve with a large enough effect in the repeat runs; inconclusive means weak or mixed curves; inactive means no such curve, though single readings can be large or run the other way.
Classes used: 1.0 (active), 0.0 (inactive)

> print(dat)
                                        mol  label
1                        CN(C)c1ccc(CCO)cc1    0.0
2             COc1cc(Cl)ccc1Oc1ccc(Cl)cc1Cl    1.0
3  CCOC(=O)COC(=O)c1cc(Oc2ccc(C(F)(F)F)cc2Cl)ccc1[N+](=O)[O-]    0.0
4  CC(C)O.CC(C)O.CCOC(=O)/C=C(\C)O.CCOC(=O)/C=C(\C)O.[Ti]    0.0
5                       COS(=O)(=O)C(F)(F)F    0.0
6  Cn1c(=O)cc(Oc2ccc(F)cc2F)c2cnc(NCC(C)(C)O)nc21    0.0
